src = paper PMC7949025

binders and their reported kon
# system_tested: T1, biotinylated A93D-PNT domain (ETV6 residues 43-135, A93D, with Avitag) (human, UniProt P41212 43-135, A93D, biotin on the Avitag (~50 to 95% biotinylated))
# T1 construct: ETV6, human, residues 43-135; made from the V112E construct by introducing A93D and E112V; also called biotinylated A93D-PNT domain ligand; A93D-PNT domain ligand; source: E. coli BL21 (λDE3) co-transformed with pET21a-BirA, purified (Ni-NTA, thrombin cleavage); not shown: His6, N-terminal, cleaved; Avitag, N-terminal, kept
# T1 sequence (looked up): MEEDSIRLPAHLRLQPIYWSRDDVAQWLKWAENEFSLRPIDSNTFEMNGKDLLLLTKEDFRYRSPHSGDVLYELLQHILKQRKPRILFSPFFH
# assay_overview: SPR; biotinylated A93D-PNT domain ligand captured on streptavidin Sensor Chip SA, PNT domain analytes flowed; Biacore X100, 25 °C, HBS-EP+ (10 mM HEPES, 150 mM NaCl, 3 mM EDTA, 0.05% v/v Tween-20, pH 7.4); analyte 0.2-60 nM, re-run at 20-6000 nM if KD > 60 nM
# recorded_conditions: both partners purified
Express it in M⁻¹ s⁻¹; write the number only.

Known kon results, listed for orientation:
L96A-V112E-PNT domain (domain or fragment, human, UniProt P41212 40-125, looked up, ETV6 PNT domain, human; source: E. coli BL21 (λDE3), purified (Ni-NTA, thrombin cleavage); not shown: His6, N-terminal, cleaved) ALRMEEDSIRLPAHLRLQPIYWSRDDVAQWLKWAENEFSLRPIDSNTFEMNGKALLALTKEDFRYRSPHSGDELYELLQHILKQRK
9500
R105A-V112E-PNT domain (domain or fragment, human, UniProt P41212 40-125, looked up, ETV6 PNT domain, human; source: E. coli BL21 (λDE3), purified (Ni-NTA, thrombin cleavage); not shown: His6, N-terminal, cleaved) ALRMEEDSIRLPAHLRLQPIYWSRDDVAQWLKWAENEFSLRPIDSNTFEMNGKALLLLTKEDFRYASPHSGDELYELLQHILKQRK
2300

As a next step, examine the binder that follows.
Please list kon recorded for the binder D101A-V112E-PNT domain (domain or fragment, human, UniProt P41212 40-125, looked up, ETV6 PNT domain, human; source: E. coli BL21 (λDE3), purified (Ni-NTA, thrombin cleavage); not shown: His6, N-terminal, cleaved) ALRMEEDSIRLPAHLRLQPIYWSRDDVAQWLKWAENEFSLRPIDSNTFEMNGKALLLLTKEAFRYRSPHSGDELYELLQHILKQRK
6300
